Data provenance: paper PMC6257796

# targetOrSystem: CYP2C19 (Homo sapiens, UniProt P33261)
# Sequence (P33261 whole entry): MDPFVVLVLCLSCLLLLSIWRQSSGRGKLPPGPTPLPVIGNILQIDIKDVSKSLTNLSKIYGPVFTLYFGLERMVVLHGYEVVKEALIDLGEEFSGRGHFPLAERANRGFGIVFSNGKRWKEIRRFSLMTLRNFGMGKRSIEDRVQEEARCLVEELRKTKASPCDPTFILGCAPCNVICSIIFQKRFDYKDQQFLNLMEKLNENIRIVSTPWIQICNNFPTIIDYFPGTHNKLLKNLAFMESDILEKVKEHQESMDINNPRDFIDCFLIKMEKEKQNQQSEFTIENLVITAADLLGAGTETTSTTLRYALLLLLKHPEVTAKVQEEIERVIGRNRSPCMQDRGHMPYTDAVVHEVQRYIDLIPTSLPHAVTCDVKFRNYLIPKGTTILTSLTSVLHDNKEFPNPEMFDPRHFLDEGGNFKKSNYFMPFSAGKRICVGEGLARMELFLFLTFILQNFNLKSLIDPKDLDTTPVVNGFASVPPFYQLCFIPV
assayMetric: Ki (µM)
Quick note: give the figure in µM, leave out the unit.

Lab note: need Ki for COc1cc(-c2cc(=O)c3c(O)c(OC)c(O)cc3o2)ccc1O [jaceosidin] on CYP2C19 (Homo sapiens, UniProt P33261), anyone have it?
45.1

====

Target sequence: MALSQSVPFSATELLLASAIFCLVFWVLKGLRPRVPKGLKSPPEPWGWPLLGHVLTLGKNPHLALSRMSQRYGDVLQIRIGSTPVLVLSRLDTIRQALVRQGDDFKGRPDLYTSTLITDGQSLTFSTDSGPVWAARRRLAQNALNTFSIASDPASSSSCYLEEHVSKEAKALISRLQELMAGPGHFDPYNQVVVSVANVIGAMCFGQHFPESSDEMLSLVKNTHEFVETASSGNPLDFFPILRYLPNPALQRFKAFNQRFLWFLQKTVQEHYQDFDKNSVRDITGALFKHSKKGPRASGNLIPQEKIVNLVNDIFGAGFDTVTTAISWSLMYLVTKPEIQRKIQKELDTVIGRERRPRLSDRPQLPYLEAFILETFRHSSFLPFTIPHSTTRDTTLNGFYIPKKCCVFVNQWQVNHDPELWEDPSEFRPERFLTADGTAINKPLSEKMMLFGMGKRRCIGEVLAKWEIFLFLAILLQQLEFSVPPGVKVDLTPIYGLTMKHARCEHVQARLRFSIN
assayMetric: Ki (nM)
Give the value, in units of nM, as a plain number.

Reported Ki, compound COc1ccc(-c2cc(=O)c3c(O)c(OC)c(O)cc3o2)cc1OC : ____
2300
